- SYSTEM_UNDER_TEST: ERR1 (also known as ERR-α or ERR-1) (Homo sapiens, UniProt P11474)
- Sequence (P11474 193-421 limits assumed): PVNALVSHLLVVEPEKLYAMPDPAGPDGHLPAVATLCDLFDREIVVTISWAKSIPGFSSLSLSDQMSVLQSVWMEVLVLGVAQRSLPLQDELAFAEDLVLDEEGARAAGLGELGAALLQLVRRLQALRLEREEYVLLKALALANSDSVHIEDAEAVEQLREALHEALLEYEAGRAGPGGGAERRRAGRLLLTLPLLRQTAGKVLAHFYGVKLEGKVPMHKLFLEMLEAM
- ASSAY_PROTOCOL: TR-FRET Assay (disruption of co-activator peptide binding to ERR1 LBD)
- Format: biochemical
- SETUP_CONDITIONS: 6His-tagged ERR1 LBD 6 nM, GST-hSRC2 co-activator peptide 6 nM; 25° C., 4-18 hours; average of 3 independent experiments
pEC50: −log10 of the molar value.
QUANTITY_KIND: pEC50

// solved cases for pEC50 follow
| COMPOUND | SYSTEM_UNDER_TEST | QUANTITY_KIND | REPORTED_MEASUREMENT |
| --- | --- | --- | --- |
| N#Cc1ccc(Oc2ccc(/C=C3\SC(=O)N(CCN4CCCC4)C3=O)cc2F)c(C(F)(F)F)c1 [Compound 14] | ERR1 (also known as ERR-α or ERR-1) (Homo sapiens, UniProt P11474) | pEC50 | 6.64 |
| N#Cc1ccc(Oc2ccc(/C=C3\SC(=O)N(CCN4CCOCC4)C3=O)cc2F)c(C(F)(F)F)c1 [Compound 6] | ERR1 (also known as ERR-α or ERR-1) (Homo sapiens, UniProt P11474) | pEC50 | 6.49 |
| COc1cc(/C=C2\SC(=O)N(CCN3CCOCC3)C2=O)ccc1Oc1ccc(C#N)cc1C(F)(F)F [Compound 1] | ERR1 (also known as ERR-α or ERR-1) (Homo sapiens, UniProt P11474) | pEC50 | 7.70 |
| COc1cc(/C=C2\SC(=O)N(CCN3CCCCC3)C2=O)ccc1Oc1ccc(C#N)cc1C(F)(F)F [Compound 9] | ERR1 (also known as ERR-α or ERR-1) (Homo sapiens, UniProt P11474) | pEC50 | 7.48 |
| COc1cc(/C=C2\SC(=O)N(CCn3cccn3)C2=O)ccc1Oc1ccc(C#N)cc1C(F)(F)F [Compound 10] | ERR1 (also known as ERR-α or ERR-1) (Homo sapiens, UniProt P11474) | pEC50 | 7.23 |

[I] COc1cc(/C=C2\SC(=O)N(CCn3ccnc3)C2=O)ccc1Oc1ccc(C#N)cc1C(F)(F)F [Compound 8]
[II] COc1cc(/C=C2\SC(=O)N(CCN3CCN(C)CC3)C2=O)ccc1Oc1ccc(C#N)cc1C(F)(F)F [Compound 4]
Exercise: Pick one, I or II : lowest reported pEC50. Field: selected label. Fill in the label of the entry you choose.
Solution: II
